assayed-target: UniProtKB Q9NSY1
Sequence (Q9NSY1 whole entry, looked up): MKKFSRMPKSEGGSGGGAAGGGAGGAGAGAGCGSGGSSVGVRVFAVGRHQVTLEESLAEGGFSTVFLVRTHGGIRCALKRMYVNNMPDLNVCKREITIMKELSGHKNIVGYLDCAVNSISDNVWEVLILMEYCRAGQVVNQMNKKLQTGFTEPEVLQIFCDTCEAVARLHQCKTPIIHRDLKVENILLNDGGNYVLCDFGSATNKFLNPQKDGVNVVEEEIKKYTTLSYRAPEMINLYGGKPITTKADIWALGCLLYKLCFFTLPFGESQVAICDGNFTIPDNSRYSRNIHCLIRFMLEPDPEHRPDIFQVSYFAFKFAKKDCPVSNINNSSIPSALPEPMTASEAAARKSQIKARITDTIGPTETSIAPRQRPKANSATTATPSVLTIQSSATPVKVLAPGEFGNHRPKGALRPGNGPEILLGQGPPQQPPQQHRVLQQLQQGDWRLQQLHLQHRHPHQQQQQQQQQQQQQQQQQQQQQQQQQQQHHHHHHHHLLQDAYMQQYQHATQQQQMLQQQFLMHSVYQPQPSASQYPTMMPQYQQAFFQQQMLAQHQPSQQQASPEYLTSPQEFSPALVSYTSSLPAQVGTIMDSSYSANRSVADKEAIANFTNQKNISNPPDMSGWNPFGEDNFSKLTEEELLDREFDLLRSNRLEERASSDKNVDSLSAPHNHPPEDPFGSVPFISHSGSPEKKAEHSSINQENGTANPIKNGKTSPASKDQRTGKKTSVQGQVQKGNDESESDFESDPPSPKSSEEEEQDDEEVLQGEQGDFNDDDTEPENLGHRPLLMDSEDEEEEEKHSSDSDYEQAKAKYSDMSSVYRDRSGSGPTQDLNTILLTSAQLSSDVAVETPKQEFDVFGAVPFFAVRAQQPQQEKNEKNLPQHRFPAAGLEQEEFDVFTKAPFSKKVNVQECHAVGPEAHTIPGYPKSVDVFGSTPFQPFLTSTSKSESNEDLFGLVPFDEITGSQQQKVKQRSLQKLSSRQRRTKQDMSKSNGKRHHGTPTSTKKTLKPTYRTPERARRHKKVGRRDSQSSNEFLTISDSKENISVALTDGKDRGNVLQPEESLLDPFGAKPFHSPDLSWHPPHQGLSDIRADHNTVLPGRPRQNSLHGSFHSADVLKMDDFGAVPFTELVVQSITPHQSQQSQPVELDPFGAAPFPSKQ
protocol-details: Inhibition of 1recombinant human BMP2K using myelin basic protein as substrate incubated for 120 mins in presence of [gamma-33P-ATP] by radiometric scintillation assay
measurement-kind: IC50 (µM)
Return type: number; implicit unit µM.

| chemical-structure | measurement-kind | assay-value |
| --- | --- | --- |
| NS(=O)(=O)c1ccc(CNc2nc(Nc3cccc(NC(=O)N4CCCC4)c3)ncc2C2CC2)cc1 | IC50 | 2.92 |

Given the molecule NS(=O)(=O)c1ccc(CNc2nc(Nc3cccc(NC(=O)N4CCCC4)c3)ncc2Br)cc1 , write its reported IC50. 0.488

----------
assayed-target: MAP kinase-interacting serine/threonine-protein kinase 2 (Homo sapiens)
Sequence (Q9HBH9 whole entry): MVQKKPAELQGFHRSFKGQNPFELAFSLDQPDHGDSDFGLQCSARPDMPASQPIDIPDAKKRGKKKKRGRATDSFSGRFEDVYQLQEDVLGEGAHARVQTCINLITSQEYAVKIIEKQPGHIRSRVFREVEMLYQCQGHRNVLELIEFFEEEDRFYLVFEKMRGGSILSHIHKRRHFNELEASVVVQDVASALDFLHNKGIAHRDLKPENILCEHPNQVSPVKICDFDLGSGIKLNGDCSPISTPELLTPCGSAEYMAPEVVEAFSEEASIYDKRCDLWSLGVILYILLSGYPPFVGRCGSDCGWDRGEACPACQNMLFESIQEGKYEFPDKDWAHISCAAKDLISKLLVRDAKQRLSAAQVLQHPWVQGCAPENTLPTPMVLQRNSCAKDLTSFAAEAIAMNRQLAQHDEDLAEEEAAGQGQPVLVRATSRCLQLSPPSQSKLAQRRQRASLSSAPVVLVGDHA
protocol-details: Inhibition of full length recombinant human MKNK2 using myelin basic protein as substrate incubated for 40 mins in presence of [gamma-33P-ATP] by radiometric scintillation assay
measurement-kind: pIC50
pIC50 (log units): -log10 of the concentration in mol/L.

| chemical-structure | assay-value |
| --- | --- |
| NS(=O)(=O)c1ccc(CNc2nc(Nc3cccc(NC(=O)N4CCCC4)c3)ncc2Br)cc1 | 6.00 |
| Cc1nn(CC(F)(F)F)cc1Nc1ncc(C2CC2)c(NCCCNC(=O)C2CCC2)n1 | 6.42 |
| Cc1nn(CC(F)(F)F)cc1Nc1ncc(Br)c(NCc2ccc(S(N)(=O)=O)cc2)n1 | 5.86 |
| O=C(NCCCNc1ccnc(Nc2cccc(NC(=O)N3CCCC3)c2)n1)C1CCC1 | 6.11 |

// next item, pIC50 requested
Given the compound Cc1nn(CC(F)(F)F)cc1Nc1nccc(NCCCNC(=O)C2CCC2)n1 , write its reported pIC50. 5.54
